Reference for the values: patent US7074789B2

Reported pIC50 by item:
biological target: AKT (Homo sapiens, UniProt Q9Y243); construct: Kinases are expressed as either kinase domains or full length constructs; made in house; test: Kinase inhibition assay (33P transfer), AKT; format: biochemical; settings: Table 2, kinase inhibition class; read-out: AKT3-1
Sequence (Q9Y243 whole entry, the tested form may be a part): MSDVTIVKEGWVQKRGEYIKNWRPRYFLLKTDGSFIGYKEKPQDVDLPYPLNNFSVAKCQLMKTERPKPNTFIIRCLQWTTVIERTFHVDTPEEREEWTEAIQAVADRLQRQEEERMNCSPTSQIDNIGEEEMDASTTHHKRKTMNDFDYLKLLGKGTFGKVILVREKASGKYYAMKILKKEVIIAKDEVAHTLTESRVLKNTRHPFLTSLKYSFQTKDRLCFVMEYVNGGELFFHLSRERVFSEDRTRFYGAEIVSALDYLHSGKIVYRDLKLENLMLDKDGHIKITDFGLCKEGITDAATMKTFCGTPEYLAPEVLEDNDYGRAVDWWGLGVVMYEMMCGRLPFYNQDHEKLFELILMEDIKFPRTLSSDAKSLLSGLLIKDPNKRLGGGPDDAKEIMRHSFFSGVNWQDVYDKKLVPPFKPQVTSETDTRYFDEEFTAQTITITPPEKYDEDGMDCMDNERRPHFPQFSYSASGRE
pIC50: −log10 of the molar value.

{"columns": ["Record smiles", "Subject of test", "pIC50"],
 "data": [
  ["CC(C)(C)OC(=O)NCc1ccc(Nc2ncnc(Nc3cc(-c4ccco4)n[nH]3)n2)cc1", "AKT (Homo sapiens, UniProt Q9Y243)", "5.11 to 5.27"],
  ["COc1cc(Nc2ncnc(N3CCCc4ccc(C(F)(F)F)cc43)n2)cc(OC)c1OC", "AKT (Homo sapiens, UniProt Q9Y243)", "< 5.01"],
  ["COc1ccc(Nc2ncnc(N(CC(=O)OC(C)(C)C)c3ccc4c(c3)OCO4)n2)cc1OC", "AKT (Homo sapiens, UniProt Q9Y243)", "< 5.03"],
  ["COc1cc(Nc2ncnc(-c3ccncc3)n2)cc(OC)c1OC", "AKT (Homo sapiens, UniProt Q9Y243)", "< 4.88"],
  ["CCN(CC)CCCNc1ccc(-c2ncnc(Nc3cc(OC)c(OC)c(OC)c3)n2)cn1", "AKT (Homo sapiens, UniProt Q9Y243)", "< 5.02"],
  ["Cc1ccc2c(c1)CCCN2c1ncnc(Nc2ccc3c(c2)C(=O)OC3)n1", "AKT (Homo sapiens, UniProt Q9Y243)", "< 4.92"],
  ["COc1ccc(CNc2ncnc(Nc3ccc4c(cnn4Cc4ccccc4)c3)n2)cc1OC", "AKT (Homo sapiens, UniProt Q9Y243)", "< 5.02"],
  ["COc1cc(Nc2ncnc(-n3c(NCc4cccs4)nc4ccccc43)n2)cc(OC)c1OC", "AKT (Homo sapiens, UniProt Q9Y243)", "< 5.04"]
]}
